# Species on record: Oryctolagus cuniculus
# PROCEDURE_SUMMARY: Antagonism of the endothelin stimulated accumulation of arachidonic acid release (AAR) was determined in cultured rabbit renal artery vascular smooth muscle cells
# Type: functional
Non-standard residues stand in square brackets, D forms with d. Residues, ends and D or L forms follow the SMILES beside them. Dip = N[C@H](C(=O)O)C(c1ccccc1)c1ccccc1; d2Nal = N[C@H](Cc1ccc2ccccc2c1)C(=O)O
REPORTED_PROPERTY: Activity (µM)
Respond with the bare value in µM.

In the examples that follow, each entry is paired with its recorded Activity.
# COMPOUND, REPORTED_PROPERTY, REPORTED_RESULT
rows = [
    ("CC[C@H](C)[C@H](NC(=O)[C@H](CC(=O)O)NC(=O)[C@H](CC(C)C)NC(=O)[C@@H](NC(C)=O)C(c1ccccc1)c1ccccc1)C(=O)N[C@H](C(=O)N[C@@H](Cc1c[nH]c2ccccc12)C(=O)O)[C@@H](C)CC (Ac-[Dip]LDIIW-OH)", "Activity", 0.07),
    ("CC[C@H](C)[C@H](NC(=O)[C@H](CC(=O)O)NC(=O)[C@H](CC(C)C)NC(=O)[C@@H](Cc1ccc(O)cc1)NC(C)=O)C(=O)N[C@H](C(=O)N[C@@H](Cc1c[nH]c2ccccc12)C(=O)O)[C@@H](C)CC (Ac-[dY]LDIIW-OH)", "Activity", 0.25),
    ("CC[C@H](C)[C@H](NC(=O)[C@H](CC(=O)O)NC(=O)[C@H](CC(C)C)NC(=O)[C@@H](Cc1ccc2ccccc2c1)NC(C)=O)C(=O)N[C@H](C(=O)N[C@@H](Cc1c[nH]c2ccccc12)C(=O)O)[C@@H](C)CC (Ac-[d2Nal]LDIIW-OH)", "Activity", 1.9),
]

Request: GET /values?readout=Activity&item= CC[C@H](C)[C@H](NC(=O)[C@H](CC(=O)O)NC(=O)[C@H](CC(C)C)NC(=O)[C@@H](Cc1c[nH]c2ccccc12)NC(C)=O)C(=O)N[C@H](C(=O)N[C@@H](Cc1c[nH]c2ccccc12)C(=O)O)[C@@H](C)CC (Ac-[dW]LDIIW-OH)
Response: 0.45

====

# TARGET: Endothelin receptor type B (Rattus norvegicus)
# Sequence (P21451 whole entry): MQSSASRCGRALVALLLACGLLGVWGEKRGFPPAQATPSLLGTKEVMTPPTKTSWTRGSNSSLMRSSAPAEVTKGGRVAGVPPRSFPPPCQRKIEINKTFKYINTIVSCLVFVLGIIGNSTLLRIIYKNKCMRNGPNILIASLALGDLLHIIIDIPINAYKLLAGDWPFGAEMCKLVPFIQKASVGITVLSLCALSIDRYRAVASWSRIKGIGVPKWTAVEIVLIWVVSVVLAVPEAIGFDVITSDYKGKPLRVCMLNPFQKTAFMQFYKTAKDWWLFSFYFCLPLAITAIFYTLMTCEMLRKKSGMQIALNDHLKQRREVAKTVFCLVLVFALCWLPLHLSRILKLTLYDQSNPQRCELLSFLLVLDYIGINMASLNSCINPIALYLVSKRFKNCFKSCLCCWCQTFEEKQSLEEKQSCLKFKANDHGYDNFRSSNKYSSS
# PROCEDURE_SUMMARY: Inhibition of ET-1 binding to Endothelin B receptor in cultured rat cerebellar membranes
# Format: cell membranes, Membrane
REPORTED_PROPERTY: IC50 (µM)
Respond with the bare value in µM.

Request: GET /values?readout=IC50&item= Ac-HLDIIW-OH
Response: 43
